# credit: BigSolDB 2.1

Conditions: in water, 303.15 K
measurementLabel: solubility (mole fraction)
Lab note: jot the number down without any unit.

solubility (mole fraction) reading for O.O=C1NC(=O)C(=O)C(=O)N1 : 0.0429

----------
Conditions: in acetone, 308.15 K
measurementLabel: solubility (mole fraction)
Lab note: jot the number down without any unit.

solubility (mole fraction) reading for O.O=C1NC(=O)C(=O)C(=O)N1 : 0.014

----------
Conditions: in ethanol, 298.15 K
measurementLabel: solubility (mole fraction)
Lab note: jot the number down without any unit.

solubility (mole fraction) reading for O.O=C1NC(=O)C(=O)C(=O)N1 : 0.0962

----------
Conditions: in THF, 298.15 K
measurementLabel: solubility (mole fraction)
Lab note: jot the number down without any unit.

solubility (mole fraction) reading for O.O=C1NC(=O)C(=O)C(=O)N1 : 0.0549
